// composite z-score lookup, one value per entry
# Assay Target: Albumin (Bos taurus) (UniProt P02769)
# Sequence (P02769 whole entry, looked up): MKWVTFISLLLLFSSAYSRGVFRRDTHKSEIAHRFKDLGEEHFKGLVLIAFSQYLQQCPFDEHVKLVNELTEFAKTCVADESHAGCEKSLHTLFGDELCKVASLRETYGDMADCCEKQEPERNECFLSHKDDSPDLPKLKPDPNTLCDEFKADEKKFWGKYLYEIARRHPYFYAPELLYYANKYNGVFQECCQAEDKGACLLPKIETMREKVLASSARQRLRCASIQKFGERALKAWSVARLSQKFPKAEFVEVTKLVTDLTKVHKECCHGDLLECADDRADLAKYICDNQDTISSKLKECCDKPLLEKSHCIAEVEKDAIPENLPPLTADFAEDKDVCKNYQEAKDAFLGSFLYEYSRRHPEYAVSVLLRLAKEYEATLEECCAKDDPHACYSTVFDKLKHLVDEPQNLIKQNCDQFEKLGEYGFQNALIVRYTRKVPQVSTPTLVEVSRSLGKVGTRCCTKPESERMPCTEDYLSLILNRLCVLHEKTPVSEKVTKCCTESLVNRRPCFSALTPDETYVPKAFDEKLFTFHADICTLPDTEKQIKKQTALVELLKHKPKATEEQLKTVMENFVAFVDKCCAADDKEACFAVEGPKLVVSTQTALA
# Test Protocol: bovine serum albumin binders on microarray, profiling panel, artefact control for SMM control protein annotation, biochemical, small-molecule microarray, Alexa647 label, 635/667 nm fluorescence (AID 1118);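 note: score merges 667 nm emission intensity and signal-to-noise per printed compound spot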
# Condition Context: BSA-A647 binding, fluorescence 635 nm, higher = more signal
Simply state the number, no unit and no words.

Below are worked cases with known answers.
| Compound | composite z-score |
| --- | --- |
| CO[C@H]1COC(=O)[C@H](C)NC(=O)[C@@H](C)COC(=O)CC=C[C@@H]1C | -0.331 |
| COc1ccc(CCNC(=O)[C@@H]2c3ccccc3C(=O)N(c3ccc(C)cn3)[C@H]2c2ccc(CO)cc2)cc1 | 0.45 |
| C=C(/C(=C/C[C@H](OC(C)=O)c1ccc(OCCO)cc1)c1cnc2ccccc2c1)C(C)C | -0.154 |
| O=C(NN=C1C[C@@H](O)[C@@H](O)[C@@H]2[C@@H]3C(=O)N(c4cccc(Oc5ccccc5)c4)C(=O)[C@@H]3CC[C@@H]12)OCc1ccccc1 | 0.564 |
| Cc1ccc(C2CC=C(C(=O)O)CN2S(=O)(=O)c2ccc(C)cc2)cc1 (stereo not drawn) | 0.921 |
| CC(C)CON=C1[C@H]2CCn3c(=O)n(-c4ccccc4)c(=O)n3[C@H]2[C@H](O)[C@@H]2O[C@H]12 | 0.348 |

Task: Record request: composite z-score value, item C#C[C@@H](CC)O[Si](C#Cc1ccc(Oc2ccccc2)cc1)(C(C)C)C(C)C
Output: -0.109

Task: Would you mind doing CCOC(=O)CCN1C(=O)[C@H]2[C@H]3[C@H](O)[C@H](O)CC(=NNC(=O)OCc4ccc(OC)cc4)[C@@H]3CC[C@H]2C1=O as well?
Output: 0.0708
